Measured values drawn from patent US12139520B2 for this set.

Each record here notes measured hAMY3R EC50 (cAMP).
Molecular target: T1, hAMY3R (human, UniProt P30988)
T1 sequence 1: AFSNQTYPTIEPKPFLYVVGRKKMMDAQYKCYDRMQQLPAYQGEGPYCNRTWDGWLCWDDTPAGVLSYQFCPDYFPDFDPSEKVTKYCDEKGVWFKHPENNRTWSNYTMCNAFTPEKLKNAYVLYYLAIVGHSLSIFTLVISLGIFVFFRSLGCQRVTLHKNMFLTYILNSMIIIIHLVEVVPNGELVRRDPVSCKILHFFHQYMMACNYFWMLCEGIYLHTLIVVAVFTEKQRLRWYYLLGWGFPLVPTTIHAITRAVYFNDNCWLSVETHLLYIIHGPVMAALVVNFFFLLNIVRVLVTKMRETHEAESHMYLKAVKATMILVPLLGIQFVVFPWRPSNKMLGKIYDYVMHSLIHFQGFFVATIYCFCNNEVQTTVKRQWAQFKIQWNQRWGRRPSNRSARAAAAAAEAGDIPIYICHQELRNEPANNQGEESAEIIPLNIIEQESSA
T1 sequence 2: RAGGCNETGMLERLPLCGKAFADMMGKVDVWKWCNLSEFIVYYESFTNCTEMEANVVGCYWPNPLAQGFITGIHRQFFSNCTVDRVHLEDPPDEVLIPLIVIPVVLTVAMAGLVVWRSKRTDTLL
Experiment: cell-based or functional assay
Numbered stars: 1 amine (or outer) side, 2 acyl side, 3 side chain; on linkers, the order of the positions; unused ones are H or OH. Bridge positions count the residues as written; N and C are the ends. Square brackets hold non-standard residues; d marks the D form. Ends that are not written are not given here. * marks the point of attachment. C20 diacid = O=C(O)CCCCCCCCCCCCCCCCCCC(=O)*; γGlu = O=C(O)[C@H](CCC(=O)[*:2])N[*:1]; Hyp = O=C(O)[C@@H]1C[C@@H](O)CN1; Cit = NC(=O)NCCC[C@H](N)C(=O)O
Write the value in nM as a bare number.

These solved cases illustrate the format of a correct answer.
GCRIGTCTVQ[Cit]LAHQIYQFTDKFKDNVAPRSKISPQT[Hyp]-NH2 (disulfide 2-7 (inferred); ends not checked) [SEQ ID NO: 295] : 0.194
KCNTATCTVQWLAHQIYQFTDKDKDNVAPATNVGSNG[Hyp]-NH2 (disulfide 2-7 (inferred); ends not checked) [SEQ ID NO: 316] : 0.012
GCRIGTCTVQWLAHQIYQFTDKFKDNVAPRSKISPQT[Hyp]-NH2 (disulfide 2-7 (inferred); ends not checked) [SEQ ID NO: 351] : 0.943
KCNTATCTVQWLAHQIYQATDKDKDNVAPPTNVGSNG[Hyp]-NH2 (disulfide 2-7 (inferred); ends not checked) [SEQ ID NO: 338] : 0.089
GCRFGTCTVQ[Cit]LAHQIYQFTDKDKDNVAPRSNVSPQG[Hyp]-NH2 (disulfide 2-7 (inferred); ends not checked) [SEQ ID NO: 293] : 0.063
GCRTGTCTVQRLAHQIYQFTDKDKDNVAPRTKVGPQGY [SEQ ID NO: 156] : 0.047

The recorded hAMY3R EC50 (cAMP) for entry KCNTATCATQRLANFLVHSSNNFGAILSSTKVGSNTY [SEQ ID NO: 58] equals 0.012

The recorded hAMY3R EC50 (cAMP) for entry {C20 diacid-γGlu}-KCNTATCTVQRLAHQIAQFYDKDKDNVAPPTNVGSNG[Hyp]-NH2 (disulfide 2-7 (inferred); not fully specified; ends not checked) [SEQ ID NO: 94] equals 0.016

The recorded hAMY3R EC50 (cAMP) for entry KCNTATCTVQRLAHQIYQFTDADKDNVAPPTNVGSNG[Hyp]-NH2 (disulfide 2-7 (inferred); ends not checked) [SEQ ID NO: 64] equals 0.012
